Tested on: HT-29
Experiment: Antineoplastic activity against HT-29 (human colon carcinoma) cell line.
Type: functional, cell-based
pIC50: −log10 of the molar value.
attribute.measured: pIC50

[I] COc1cc([C@@H]2c3cc4c(cc3C=C(C=O)[C@H]2CO)OCO4)cc(OC)c1OC
[II] COc1cc([C@@H]2c3cc4c(cc3C=C(/C=N/Nc3ccccc3)[C@H]2CO)OCO4)cc(OC)c1OC
[III] COC(=O)[C@@H]1C(/C=N/NCC(F)(F)F)=Cc2cc3c(cc2[C@H]1c1cc(OC)c(OC)c(OC)c1)OCO3
[IV] COC(=O)[C@H]1[C@H](c2cc(OC)c(OC)c(OC)c2)c2cc3c(cc2[C@H](O)[C@H]1CO)OCO3
Rank the 4 molecules: largest pIC50 first, smallest last. Rank them, then answer with their labels in that order. III, I, IV, II
(III: 7.32, I: 6.60, IV: 6.35, II: 5.69)

* * *

Test system: P388
Test: Antineoplastic activity against P-388 (murine leukemia) cell line.
Type: functional, cell-based
Conditions: Mus musculus
attribute.measured: IC50 (nM)

Here's what some known entries look like.
{"smiles.input": "COc1cc([C@@H]2c3cc4c(cc3C[C@H]3COC(=O)[C@@H]32)OCO4)cc(OC)c1OC", "measurement.units": "nM", "IC50": 10}
{"smiles.input": "COc1cc([C@@H]2c3cc4c(cc3C=C(C=O)[C@H]2CO)OCO4)cc(OC)c1OC", "measurement.units": "nM", "IC50": 250}
{"smiles.input": "COC(=O)[C@@H]1C(/C=N/N)=Cc2cc3c(cc2[C@H]1c1cc(OC)c(OC)c(OC)c1)OCO3", "measurement.units": "nM", "IC50": 570}
{"smiles.input": "COc1cc([C@@H]2c3cc4c(cc3[C@H](O)[C@H]3COC(=O)[C@H]23)OCO4)cc(OC)c1OC", "measurement.units": "nM", "IC50": 12}

[P] COC(=O)[C@H]1[C@H](c2cc(OC)c(OC)c(OC)c2)c2cc3c(cc2C[C@H]1C=O)OCO3
[Q] COC(=O)[C@@H]1[C@H](COC(C)=O)Cc2cc3c(cc2[C@H]1c1cc(OC)c(OC)c(OC)c1)OCO3
Lower IC50: P or Q ? Give the label of your selection. Q
(Q: 210 nM, P: 2340 nM)

[1] COC(=O)[C@H]1[C@H](c2cc(OC)c(OC)c(OC)c2)c2cc3c(cc2[C@H](O)[C@H]1CO)OCO3
[2] COC(=O)[C@H]1[C@H](c2cc(OC)c(OC)c(OC)c2)c2cc3c(cc2C(=O)[C@H]1CO)OCO3
[3] COc1cc([C@@H]2c3cc4c(cc3C=C(/C=N/Nc3ccccc3)[C@H]2CO)OCO4)cc(OC)c1OC
[4] COC(=O)[C@@H]1C(/C=N/Nc2ccccc2)=Cc2cc3c(cc2[C@H]1c1cc(OC)c(OC)c(OC)c1)OCO3
Rank ascending by IC50. Rank them, then answer with their labels in that order. 1, 3, 4, 2
(1: 220 nM, 3: 1020 nM, 4: 1940 nM, 2: 5630 nM)

[1] COC(=O)[C@@H]1C(/C=N/O)=Cc2cc3c(cc2[C@H]1c1cc(OC)c(OC)c(OC)c1)OCO3
[2] CO/N=C/C1=Cc2cc3c(cc2[C@@H](c2cc(OC)c(OC)c(OC)c2)[C@@H]1C(=O)OC)OCO3
For this pair, 1 and 2 , which shows a numerically higher IC50? Give the label of your selection. 1
(1: 2270 nM, 2: 220 nM)

* * *

Tested on: HT-29
Experiment: Antineoplastic activity against HT-29 (human colon carcinoma) cell line.
Type: functional, cell-based
pIC50: −log10 of the molar value.
attribute.measured: pIC50

{"smiles.input": "COC(=O)[C@@H]1C(/C=N/Nc2ccccc2)=Cc2cc3c(cc2[C@H]1c1cc(OC)c(OC)c(OC)c1)OCO3", "pIC50": 7.41}
{"smiles.input": "COc1cc([C@@H]2c3cc4c(cc3[C@H](O)[C@H]3COC(=O)[C@H]23)OCO4)cc(OC)c1OC", "pIC50": 7.54}

[P] COC(=O)[C@@H]1C(/C=N/N)=Cc2cc3c(cc2[C@H]1c1cc(OC)c(OC)c(OC)c1)OCO3
[Q] CO/N=C/C1=Cc2cc3c(cc2[C@@H](c2cc(OC)c(OC)c(OC)c2)[C@@H]1C(=O)OC)OCO3
For this pair, P and Q , which shows a numerically higher pIC50? Give the label of your selection. Q

* * *

Test system: HT-29
Assay: Antineoplastic activity against HT-29 (human colon carcinoma) cell line.
Type: functional, cell-based
pIC50: −log10 of the molar value.
attribute.measured: pIC50

Here's what some known entries look like.
{"smiles.input": "COC(=O)[C@H]1[C@H](c2cc(OC)c(OC)c(OC)c2)c2cc3c(cc2C[C@H]1C=O)OCO3", "tgt": "HT-29", "observed.measurement": 5.63}
{"smiles.input": "COc1cc([C@@H]2c3cc4c(cc3C(=O)[C@H]3COC(=O)[C@@H]23)OCO4)cc(OC)c1OC", "tgt": "HT-29", "observed.measurement": 4.92}

[1] COC(=O)[C@H]1[C@H](c2cc(OC)c(OC)c(OC)c2)c2cc3c(cc2[C@H](OC(C)=O)[C@H]1COC(C)=O)OCO3
[2] COC(=O)[C@@H]1C(/C=N/O)=Cc2cc3c(cc2[C@H]1c1cc(OC)c(OC)c(OC)c1)OCO3
[3] COC(=O)[C@@H]1[C@H](CO)Cc2cc3c(cc2[C@H]1c1cc(OC)c(OC)c(OC)c1)OCO3
[4] COC(=O)[C@H]1[C@H](c2cc(OC)c(OC)c(OC)c2)c2cc3c(cc2C(=O)[C@H]1CO)OCO3
[5] COC(=O)[C@@H]1[C@H](COC(C)=O)Cc2cc3c(cc2[C@H]1c1cc(OC)c(OC)c(OC)c1)OCO3
Rank ascending by pIC50. Rank them, then answer with their labels in that order. 4, 2, 1, 5, 3

* * *

Tested on: P388
Assay: Antineoplastic activity against P-388 (murine leukemia) cell line.
Type: functional, cell-based
Conditions: Mus musculus
pIC50: −log10 of the molar value.
attribute.measured: pIC50

Here's what some known entries look like.
{"compound": "CO/N=C/[C@@H]1Cc2cc3c(cc2[C@@H](c2cc(OC)c(OC)c(OC)c2)[C@@H]1C(=O)OC)OCO3", "attribute.measured": "pIC50", "observed.measurement": 4.96}
{"compound": "COC(=O)[C@@H]1[C@H](CO)Cc2cc3c(cc2[C@H]1c1cc(OC)c(OC)c(OC)c1)OCO3", "attribute.measured": "pIC50", "observed.measurement": 7.24}

[P] COC(=O)[C@@H]1C(/C=N/NCC(F)(F)F)=Cc2cc3c(cc2[C@H]1c1cc(OC)c(OC)c(OC)c1)OCO3
[Q] COC(=O)[C@H]1[C@H](c2cc(OC)c(OC)c(OC)c2)c2cc3c(cc2[C@H](OC(C)=O)[C@H]1COC(C)=O)OCO3
Lower pIC50: P or Q ? Give the label of your selection. Q
